Target: human Mac-1 (integrin αMβ2, CD11b/CD18) (human, UniProt P11215 17-1152; P05107 23-769)
Assay: flow cytometry, HEK293/Mac-1 cells (clone 1-4), PBS (Mock)
Catalogue of Mock MFI readings, one per entry.
Property label: Mock MFI (MFI)

Binder: anti-Mac-1 antibody clone DF4-25 (antibody, human IgG4, V domains shown) VH: EVQLVESGGGLVQPGGSLRLSCAASGFTFKDYWLSWVRQAPGKGLEWVSIINYGGSETYYADSVKGRFTISRDNSKNTLYLQMNSLRAEDTAVYYCARTQTSYVMDYWGQGTLVTVSS VL: DIQMTQSPSSLSASVGDRVTITCRASQSVRSGLNWYQQKPGKAPKLLIYAASSLQSGVPRRFSGSGSGTDFTLTISSLQPEDFATYYCMQSHSWPLTFGQGTKVEIK
Reading unit: MFI
Numeric value: 35700

Binder: anti-Mac-1 antibody clone 27D06 (antibody, human IgG4, V domains shown) VH: QVKLQESGAEVVKPGASVKISCKASGYSFTDYNMNWVKQSNGKSLEWIGVINPNYGTTSYNQKFKGKATLTVDQSSSTAYMQLNSLTSEDSAVYYCARTYDYDGDAFAYWGQGTTVTVSS VL: DIELTQSPALMSASPGEKVTMTCRASSSVSSNNLHWYQQKSGASPKLWIYSTSNLATGAPARFSGSGSGTSYSLTISSMEAEDAATYYCQQWNSNPPTFGGGTKLEIK
Reading unit: MFI
Numeric value: 15000

Binder: anti-Mac-1 antibody clone DF3M-5 (antibody, human IgG4, V domains shown) VH: EVQLVESGGGLVQPGGSLRLSCAASGFTFGTYDMHWVRQAPGKGLEWVSMISPSGGDTYYADSVKGRFTISRDNSKNTLYLQMNSLRAEDTAVYYCARDSSGDWYAMAYWGQGTLVTVSS VL: DIQMTQSPSSLSASVGDRVTITCRASQSIRRYLAWYQQKPGKAPKLLIYGASNLQSGVPSRFSGSGSGTDFTLTISSLQPEDFATYYCQHSSDTPLTFGQGTKVEIK
Reading unit: MFI
Numeric value: 34600

Binder: anti-Mac-1 antibody clone DF4-22 (antibody, human IgG4, V domains shown) VH: EVQLVESGGGLVQPGGSLRLSCAASGFTFTDYNVHWVRQAPGKGLEWVSGINSSGSETNYADSVKGRFTISRDNSKNTLYLQMNSLRAEDTAVYYCARDSVFKTVGGYDAVMDYWGQGTLVTVSS VL: DIQMTQSPSSLSASVGDRVTITCRASQSIYNYLAWYQQKPGKAPKLLIYGTSTLQSGVPSRFSGSGSGTDFTLTISSLQPEDFATYYCMQSYSSPTTFGQGTKVEIK
Reading unit: MFI
Numeric value: 24400
